Recorded Ratio values for a group of molecules are listed next.
System: Protein-glutamine gamma-glutamyltransferase K (Homo sapiens)
Sequence (whole entry): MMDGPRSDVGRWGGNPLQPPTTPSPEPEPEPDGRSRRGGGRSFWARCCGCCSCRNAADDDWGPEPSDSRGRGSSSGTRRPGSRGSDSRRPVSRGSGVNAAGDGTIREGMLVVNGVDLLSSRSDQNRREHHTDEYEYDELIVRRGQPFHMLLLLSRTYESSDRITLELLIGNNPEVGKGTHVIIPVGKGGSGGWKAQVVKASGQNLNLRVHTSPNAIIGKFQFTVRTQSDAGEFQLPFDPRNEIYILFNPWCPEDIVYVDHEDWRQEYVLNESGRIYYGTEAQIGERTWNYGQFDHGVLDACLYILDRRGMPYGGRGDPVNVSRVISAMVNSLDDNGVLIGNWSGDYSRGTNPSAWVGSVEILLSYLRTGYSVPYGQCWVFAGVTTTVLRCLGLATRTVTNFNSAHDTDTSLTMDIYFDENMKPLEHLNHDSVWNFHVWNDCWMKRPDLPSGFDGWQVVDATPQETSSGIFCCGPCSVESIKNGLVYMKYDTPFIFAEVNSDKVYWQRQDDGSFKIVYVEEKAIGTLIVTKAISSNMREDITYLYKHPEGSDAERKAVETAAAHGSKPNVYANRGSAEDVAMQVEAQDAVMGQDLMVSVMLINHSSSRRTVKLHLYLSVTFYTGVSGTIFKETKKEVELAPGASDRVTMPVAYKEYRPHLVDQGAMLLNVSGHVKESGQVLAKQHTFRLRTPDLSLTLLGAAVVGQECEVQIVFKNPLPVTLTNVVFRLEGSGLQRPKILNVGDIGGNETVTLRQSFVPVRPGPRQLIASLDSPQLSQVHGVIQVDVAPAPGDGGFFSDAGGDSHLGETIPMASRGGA
Measurement protocol: Inhibition of human transglutaminase 1 using ((benzyloxy)carbonyl)-L-glutaminyl-L-serine peptide substrate assessed as Kinh/Ki ratio by GDH coupled assay
Property: Ratio

[[record]]
cpd_smiles = "O=C(NC[C@@H]1CC(Br)=NO1)[C@@H]1CCCN1C(=O)OCc1ccncc1"
system = "Protein-glutamine gamma-glutamyltransferase K (Homo sapiens)"
recorded_number = 10.8

[[record]]
cpd_smiles = "C#CCO[C@@H]1C[C@@H](C(=O)NC[C@@H]2CC(Br)=NO2)N(C(=O)OCc2cnc3ccccc3c2)C1"
system = "Protein-glutamine gamma-glutamyltransferase K (Homo sapiens)"
recorded_number = 7.1

[[record]]
cpd_smiles = "O=C(NC[C@@H]1CC(Br)=NO1)[C@@H]1C[C@@H](c2ccccc2O)CN1C(=O)OCc1cnc2ccccc2c1"
system = "Protein-glutamine gamma-glutamyltransferase K (Homo sapiens)"
recorded_number = 29.5

